ASSAY TEXT: Cytotoxicity against human PLC/PRF/5 cells
Format: functional
CONDITION LABEL: read-out: ED50 (the source's name)
TEST READOUT: EC50 (µg/mL)
One number for each entry, in µg/mL.

Some solved entries appear below for comparison.
INSERT INTO assay_data (molecule, readout_unit, experimental_value) VALUES
  ('C[C@H]1CC[C@H]([C@@H](C)[C@H]2[C@H](O)C[C@H]3[C@@H]4CC=C5C[C@@H](O)CC[C@]5(C)[C@H]4CC[C@]23C)NC1 [CAPSIMINE]', 'µg/mL', 1.97),
  ('C[C@H]1CC=C([C@@H](C)[C@H]2[C@H](O)C[C@H]3[C@@H]4CC=C5C[C@@H](O)CC[C@]5(C)[C@H]4CC[C@]23C)NC1 [ETIOLINE]', 'µg/mL', 2.67),
  ('O=C1C[C@@H](c2ccc(O)cc2)Oc2cc(O)cc(O)c21 [NARINGENIN]', 'µg/mL', 2.47),
  ('C[C@@H]1CC[C@]2(O[C@H]3C[C@H]4[C@@H]5CC=C6C[C@@H](O)CC[C@]6(C)[C@H]5CC[C@]4(C)[C@H]3[C@@H]2C)N(C)C1', 'µg/mL', 8.02),
  ('C[C@H]1CC[C@H]([C@@H](C)[C@H]2[C@H](O)C[C@H]3[C@@H]4CC=C5C[C@@H](O[C@@H]6O[C@H](CO)[C@@H](O)[C@H](O)[C@H]6O)CC[C@]5(C)[C@H]4CC[C@]23C)NC1 [CAPSICASTRINE]', 'µg/mL', 1.78);

Below: the item to evaluate.
So, C[C@@H]1CC[C@@]2(NC1)O[C@H]1C[C@H]3[C@@H]4CC=C5C[C@@H](O[C@@H]6O[C@H](CO)[C@H](O)[C@H](O[C@@H]7O[C@H](CO)[C@@H](O)[C@H](O)[C@H]7O)[C@H]6O[C@@H]6O[C@@H](C)[C@H](O)[C@@H](O)[C@H]6O)CC[C@]5(C)[C@H]4CC[C@]3(C)[C@H]1[C@@H]2C [SOLASONINE] ? Its EC50 was 7.88

* * *

Tested on: KB
ASSAY TEXT: Cytotoxicity against human KB cells
Assay type: functional
CONDITION LABEL: read-out: ED50 (the source's name)
Assign labels as follows, please: TRUE for EC50 below 3 µg/mL; FALSE for EC50 equal to or exceeding 3 µg/mL.

Worked cases, answers included:
INSERT INTO measurements (molecule, discrete_label) VALUES
  ('C[C@H]1CC[C@H]([C@@H](C)[C@H]2[C@H](O)C[C@H]3[C@@H]4CC=C5C[C@@H](O)CC[C@]5(C)[C@H]4CC[C@]23C)NC1 [CAPSIMINE]', 'TRUE'),
  ('C[C@@H]1CC[C@]2(O[C@H]3C[C@H]4[C@@H]5CC=C6C[C@@H](O)CC[C@]6(C)[C@H]5CC[C@]4(C)[C@H]3[C@@H]2C)N(C)C1', 'FALSE');

Strictly below 3 µg/mL: is that where EC50 of O=C1C[C@@H](c2ccc(O)cc2)Oc2cc(O)cc(O)c21 [NARINGENIN] sits?
TRUE

Strictly below 3 µg/mL: is that where EC50 of C[C@H]1CC=C([C@@H](C)[C@H]2[C@H](O)C[C@H]3[C@@H]4CC=C5C[C@@H](O)CC[C@]5(C)[C@H]4CC[C@]23C)NC1 [ETIOLINE] sits?
FALSE

Strictly below 3 µg/mL: is that where EC50 of C[C@@H]1CC[C@@]2(NC1)O[C@H]1C[C@H]3[C@@H]4CC=C5C[C@@H](O[C@@H]6O[C@H](CO)[C@H](O)[C@H](O[C@@H]7O[C@H](CO)[C@@H](O)[C@H](O)[C@H]7O)[C@H]6O[C@@H]6O[C@@H](C)[C@H](O)[C@@H](O)[C@H]6O)CC[C@]5(C)[C@H]4CC[C@]3(C)[C@H]1[C@@H]2C [SOLASONINE] sits?
FALSE
